test: self-splicing fitness, log relative to wild type (ln ratio); higher = more splicing; Tetrahymena group I intron in knt gene, E. coli kanamycin selection, DiMSum; sequences stand for … in CUCUCU…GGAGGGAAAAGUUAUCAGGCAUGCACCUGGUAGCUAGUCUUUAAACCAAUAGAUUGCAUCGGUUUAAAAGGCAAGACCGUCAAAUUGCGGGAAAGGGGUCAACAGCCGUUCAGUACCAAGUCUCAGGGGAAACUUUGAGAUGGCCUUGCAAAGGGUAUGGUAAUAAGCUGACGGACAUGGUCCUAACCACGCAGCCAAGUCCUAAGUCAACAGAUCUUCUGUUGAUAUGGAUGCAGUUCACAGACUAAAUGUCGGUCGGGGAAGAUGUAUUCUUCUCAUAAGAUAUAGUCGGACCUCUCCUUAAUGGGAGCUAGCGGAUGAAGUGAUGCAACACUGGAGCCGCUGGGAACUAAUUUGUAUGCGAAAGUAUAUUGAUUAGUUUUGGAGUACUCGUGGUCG; conditions: 30 °C;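 further: selection with 25 µg/mL kanamycin versus none on LB agar overnight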
Could you label it criterion met if measured self-splicing fitness (ln) is -2 or higher, and criterion not met otherwise?

Worked cases, answers included:
stdin: Hi team, for UUGCAGCAAUAUUACGAUAU , is the recorded self-splicing fitness (ln) at or above -2?
stdout: criterion not met

stdin: Hi team, for GUCUAGCAAUAUUACGUCAU , is the recorded self-splicing fitness (ln) at or above -2?
stdout: criterion met

stdin: Hi team, for UCAUAGCAAUAUUACGUAUG , is the recorded self-splicing fitness (ln) at or above -2?
stdout: criterion not met

stdin: Hi team, for UAGGAGCAAUAUUACGAGCG , is the recorded self-splicing fitness (ln) at or above -2?
stdout: criterion not met

stdin: Hi team, for GCGCAGCAAUAUUACGCUUG , is the recorded self-splicing fitness (ln) at or above -2?
stdout: criterion not met

Others:
stdin: Hi team, for GGUAAGCAAUAUUACGAGCU , is the recorded self-splicing fitness (ln) at or above -2?
stdout: criterion not met

stdin: Hi team, for AGCCAGCAAUAUUACGAAGC , is the recorded self-splicing fitness (ln) at or above -2?
stdout: criterion met

stdin: Hi team, for CUUCAGCAAUAUUACGAAAG , is the recorded self-splicing fitness (ln) at or above -2?
stdout: criterion not met

stdin: Hi team, for AGGAAGCAAUAUUACGCUUA , is the recorded self-splicing fitness (ln) at or above -2?
stdout: criterion not met

stdin: Hi team, for CGUGAGCAAUAUUACGAUUG , is the recorded self-splicing fitness (ln) at or above -2?
stdout: criterion met

stdin: Hi team, for UUCAAGCAAUAUUACGAGUG , is the recorded self-splicing fitness (ln) at or above -2?
stdout: criterion met

stdin: Hi team, for GGAUAGCAAUAUUACGCACG , is the recorded self-splicing fitness (ln) at or above -2?
stdout: criterion met
